Source: paper PMC4919643

# method-description: Pharmacokinetics assay of 26a in ob/ob mice (plasma and intestinal tissue)
# Assay type: in vivo, mouse
# particulars: male, mouse, duodenum, po, 100 mg/kg p.o., at 2 h, tissue density taken as 1 g/ml, read-out: Cmax in duodenum tissue
metric-name: Cmax (µg/mL)
Give just the number in µg/mL; leave the unit off.

Query :: Please report the recorded Cmax for CN(CC[N+](C)(C)C)C(=O)CCc1cc(Cl)c(Oc2ccsc2C(=O)N2CCN(C3CC3)c3ccccc32)cc1Cl [Compound 26a] .
Result :: 136

====

# method-description: Pharmacokinetics assay of 26a in ob/ob mice (plasma and intestinal tissue)
# Assay type: in vivo, mouse
# particulars: male, mouse, colon, po, 100 mg/kg p.o., at 2 h, tissue density taken as 1 g/ml, read-out: Cmax in colon tissue
# Method: The blood and intestinal tissue samples were collected before dosing or 2, 4, 6, 10, 16, and 24 h after dosing. Density of intestinal tissue was taken as 1 g/ml. Error bar indicates SEM. […] Pharmacokinetics assay of 26a in ob/ob mice. […] administered to 12 h-fasted ob/ob mice (n = 3 per time point). Blood and intestinal tissue samples were collected before dosing or 2 h, 4 h, 6 h, 10 h 16 h, 24 h after dosing. […] After centrifugation at 11000 rpm for 5 mins, the supernatant was analyzed by LC-MS/MS. […]
metric-name: Cmax
Give the value; after it, write the unit.

Query :: Please report the recorded Cmax for CN(CC[N+](C)(C)C)C(=O)CCc1cc(Cl)c(Oc2ccsc2C(=O)N2CCN(C3CC3)c3ccccc32)cc1Cl [Compound 26a] .
Result :: 27000 ng/mL
